# target-under-test: human AMPK (α2β1γ1) (Homo sapiens, UniProt P54619+P54646+Q9Y478)
# Construct: made in house; host or cells: E. coli
# Sequence (P54646 whole entry): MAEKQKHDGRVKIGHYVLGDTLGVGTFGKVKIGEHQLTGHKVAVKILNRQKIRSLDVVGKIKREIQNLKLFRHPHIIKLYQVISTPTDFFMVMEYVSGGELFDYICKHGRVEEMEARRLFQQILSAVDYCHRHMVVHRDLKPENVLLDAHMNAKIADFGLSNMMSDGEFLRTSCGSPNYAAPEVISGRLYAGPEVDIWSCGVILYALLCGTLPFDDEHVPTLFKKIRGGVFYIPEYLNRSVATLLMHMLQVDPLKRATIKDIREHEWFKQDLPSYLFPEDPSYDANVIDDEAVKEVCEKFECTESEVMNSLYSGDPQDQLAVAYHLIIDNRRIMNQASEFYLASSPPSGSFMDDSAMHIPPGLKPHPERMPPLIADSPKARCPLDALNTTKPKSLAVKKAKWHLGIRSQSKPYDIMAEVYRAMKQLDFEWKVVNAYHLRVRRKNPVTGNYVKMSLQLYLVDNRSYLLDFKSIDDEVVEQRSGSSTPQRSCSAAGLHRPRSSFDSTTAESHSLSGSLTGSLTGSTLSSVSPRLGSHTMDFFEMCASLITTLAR
# Sequence (Q9Y478 whole entry): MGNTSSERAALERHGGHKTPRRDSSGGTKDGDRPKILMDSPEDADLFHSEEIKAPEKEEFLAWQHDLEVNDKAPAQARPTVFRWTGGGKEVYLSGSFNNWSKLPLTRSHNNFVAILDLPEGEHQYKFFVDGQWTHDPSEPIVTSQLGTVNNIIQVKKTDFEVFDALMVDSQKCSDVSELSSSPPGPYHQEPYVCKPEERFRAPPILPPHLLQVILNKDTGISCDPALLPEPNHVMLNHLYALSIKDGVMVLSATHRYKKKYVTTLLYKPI
# Sequence (P54619 whole entry): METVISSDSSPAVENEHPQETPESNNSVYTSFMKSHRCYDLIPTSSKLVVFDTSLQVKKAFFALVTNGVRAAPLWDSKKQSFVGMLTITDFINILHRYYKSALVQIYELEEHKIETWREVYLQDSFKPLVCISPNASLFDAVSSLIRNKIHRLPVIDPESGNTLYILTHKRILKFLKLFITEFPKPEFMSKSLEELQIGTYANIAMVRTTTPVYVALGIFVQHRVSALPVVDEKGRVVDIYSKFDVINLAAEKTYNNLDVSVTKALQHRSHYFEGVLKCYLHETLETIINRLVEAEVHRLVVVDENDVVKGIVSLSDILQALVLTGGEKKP
# test-protocol: AMPK (α2β1γ1) activation at molecular level, HTRF KinEASE-STK S1 kinase assay
# Assay type: biochemical
# condition-notes: activation of human AMPK (α2β1γ1), 4 μM ATP, 45 min at 30° C.
result-type: Activation ratio (Fold)
Use Fold as the unit, but write only the number.

Consider the reported Activation ratio (Fold) for these compounds:
CCOc1ccc(CNC(=O)c2ccc(CN3CCc4c(c(=O)n(-c5ccc(F)c(C(F)(F)F)c5)n4C)C3)cc2)cc1OC :: 2.8
O=C(NCc1ccccc1)c1ccc(CN2C=C3C(=O)N(c4ccc(F)c(C(F)(F)F)c4)N=C3CC2)cc1 :: 3.0
COc1ccc(CNC(=O)c2ccc(CN3CCC4=NN(c5ccc(F)c(C(F)(F)F)c5)C(=O)C4(C)C3)cc2)cc1OC (centres unmarked) :: 2.7
CCOc1cc(CNC(=O)c2ccc(CN3CCc4c(c(=O)n(-c5ccc(F)c(C(F)(F)F)c5)n4C)C3)cc2)ccc1OC :: 2.3
COc1ccc(CNC(=O)c2cccc(CN3C=C4C(=O)N(c5ccc(F)c(C(F)(F)F)c5)N=C4CC3)c2)cc1OC :: 2.7

Give Activation ratio (Fold) (human AMPK (α2β1γ1) (Homo sapiens, UniProt P54619+P54646+Q9Y478)) of the following compound: `COc1ccc(CNC(=O)c2ccc(CN3C=C4C(=O)N(c5ccc(S(N)(=O)=O)cc5)N=C4CC3)cc2)cc1OC`
2.1

Same question for COC(=O)c1cccc(CN2CCC3=NN(c4ccc(F)c(C(F)(F)F)c4)C(=O)C3C2)c1 (centres unmarked) please.
3.2

Same question for `CCNC(=O)c1ccc(CN2C=C3C(=O)N(c4ccc(F)c(C(F)(F)F)c4)N=C3CC2)cc1` please.
2.7

Same question for `COc1ccc(C2(NC(=O)c3ccc(CN4C=C5C(=O)N(c6ccc(F)c(C(F)(F)F)c6)N=C5CC4)cc3)CC2)cc1OC` please.
2.6

Same question for `COc1cccc(CNC(=O)c2ccc(CN3C=C4C(=O)N(c5ccc(F)c(C(F)(F)F)c5)N=C4CC3)cc2)c1` please.
2.8

Same question for `COc1cc(CNC(=O)c2ccc(CN3C=C4C(=O)N(c5ccc(F)c(C(F)(F)F)c5)N=C4CC3)cc2)ccc1OC(F)F` please.
2.3

---

Below: a set of entries, each annotated with reported Activation ratio (Fold).
# target-under-test: human AMPK (α2β1γ1) (Homo sapiens, UniProt P54619+P54646+Q9Y478)
# Construct: made in house; host or cells: E. coli
# test-protocol: AMPK (α2β1γ1) activation at molecular level, HTRF KinEASE-STK S1 kinase assay
# Assay type: biochemical
# condition-notes: activation of human AMPK (α2β1γ1), 4 μM ATP, 45 min at 30° C.
# Method: 1. Purpose of the experiment: To screen small molecule compounds that can activate AMPK (α2β1γ1). 2. Principle of the experiment: The peptide as substrate contains sites which can be AMPK phosphorylated. One terminal of the peptide is linked with biotin in the reaction system (containing 2 mM MgCl2, 400 μM DTT, 160 nM substrate peptide, 4 μM ATP and 1.6 nM AMPK). […] The final AMPK activity is expressed as a ratio of the 665 nm wavelength reading to the 615 nm wavelength reading (665 nm/615 nm). […]
Use Fold as the unit, but write only the number.

O=C(NCC1CCCCC1)c1ccc(CN2C=C3C(=O)N(c4ccc(F)c(C(F)(F)F)c4)N=C3CC2)cc1 :: 2.2

May I ask what Activation ratio (Fold) has been recorded for `C[C@@H](NC(=O)c1ccc(CN2C=C3C(=O)N(c4ccc(F)c(C(F)(F)F)c4)N=C3CC2)cc1)c1ccccc1` ?
2.5

Same question for `COc1ccc(CNC(=O)c2ccc(CN3CCc4c(c(=O)n(-c5ccc(F)c(C(F)(F)F)c5)n4C)C3)cc2)cc1OC` please.
3.6

Same question for `COc1cc(CNC(=O)c2ccc(CN3C=C4C(=O)N(c5ccc(F)c(C(F)(F)F)c5)N=C4CC3)cc2)ccc1O` please.
2.7

Same question for `COc1ccc(CN(C)C(=O)c2ccc(CN3C=C4C(=O)N(c5ccc(F)c(C(F)(F)F)c5)N=C4CC3)cc2)cc1OC` please.
3.0

Same question for `COc1ccc(CNC(=O)c2ccc(CN3C=C4C(=O)N(c5ccc(F)c(C(F)(F)F)c5)N=C4CC3)c(C)c2)cc1OC` please.
2.6

Same question for `COc1cc(F)c(CNC(=O)c2ccc(CN3C=C4C(=O)N(c5ccc(F)c(C(F)(F)F)c5)N=C4CC3)cc2)cc1OC` please.
2.8

Same question for `CCOc1ccc(CNC(=O)c2ccc(CN3C=C4C(=O)N(c5ccc(F)c(C(F)(F)F)c5)N=C4CC3)cc2)cc1OC` please.
3.0

Same question for `COc1ccc(C(C)(C)NC(=O)c2ccc(CN3C=C4C(=O)N(c5ccc(F)c(C(F)(F)F)c5)N=C4CC3)cc2)cc1OC` please.
2.2

Same question for `COc1ccc(CNC(=O)c2ccc(CN3C=C4C(=O)N(c5ccc(F)c(C(F)(F)F)c5)N=C4CC3)cc2)cc1OC(F)F` please.
2.4

Same question for Nc1ncnc2c1ncn2[C@@H]1O[C@H](COP(=O)(O)O)[C@@H](O)[C@H]1O [AMP, reference compound] please.
2.6

Same question for `COc1ccc(CNC(=O)c2ccc(CN3C=C4C(=O)N(c5ccc(F)c(C(F)(F)F)c5)N=C4CC3)cc2)cc1OC` please.
3.3

Same question for `COc1ccc(CNC(=O)c2ccc(CN3C=C4C(=O)N(c5nc6ccccc6s5)N=C4CC3)cc2)cc1OC` please.
2.8

Same question for `COc1cc(CNC(=O)c2ccc(CN3C=C4C(=O)N(c5ccc(F)c(C(F)(F)F)c5)N=C4CC3)cc2)cc(OC)c1OC` please.
3.5
